Target: BACE2 (Homo sapiens)
Construct: purchased R&D Systems 4097-AS
Sequence (Q9Y5Z0 63-518): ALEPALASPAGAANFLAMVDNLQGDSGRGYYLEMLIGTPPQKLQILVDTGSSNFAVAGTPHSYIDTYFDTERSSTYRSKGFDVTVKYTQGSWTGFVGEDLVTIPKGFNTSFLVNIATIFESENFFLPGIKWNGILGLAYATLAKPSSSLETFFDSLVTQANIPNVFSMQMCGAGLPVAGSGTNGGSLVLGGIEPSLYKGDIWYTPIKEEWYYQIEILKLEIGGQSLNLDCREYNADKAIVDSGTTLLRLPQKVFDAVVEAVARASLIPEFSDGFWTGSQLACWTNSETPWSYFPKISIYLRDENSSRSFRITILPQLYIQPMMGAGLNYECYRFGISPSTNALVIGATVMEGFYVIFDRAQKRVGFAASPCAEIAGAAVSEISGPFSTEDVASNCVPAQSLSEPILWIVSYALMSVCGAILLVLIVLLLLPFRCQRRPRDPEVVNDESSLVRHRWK
Test: BACE2 purified enzyme fluorescence polarization assay
Type: biochemical
Conditions: purified human enzyme, fluorescence polarization

compound	unitOfMeasurement	IC50
NC1=N[C@@]2(c3ccc(F)cc3F)CO[C@@H](c3nc(CO)co3)C[C@H]2[C@@H](CF)S1 [PF-7152]	µM	0.67
Cc1cc([C@H]2C[C@H]3[C@@H](CF)SC(N)=N[C@@]3(c3ccc(F)cc3F)CO2)on1 [PF-3195]	µM	0.15
Cc1cc([C@H]2C[C@H]3[C@@H](C)SC(N)=N[C@@]3(c3ccc(F)cc3F)CO2)on1 [PF-9283]	µM	0.14
C#CCOc1ccc(C(=O)c2ccc(COC[C@H]3C[C@H]4CSC(N)=N[C@@]4(c4ccc(F)cc4F)CO3)cc2)cc1 [PF-7802]	µM	0.12
